src = patent US5541190A

# System tested: 5α-reductase (Homo sapiens, UniProt P18405)
# Construct: host or cells: Hs68 human genital skin fibroblasts
# Sequence (P18405 1-259): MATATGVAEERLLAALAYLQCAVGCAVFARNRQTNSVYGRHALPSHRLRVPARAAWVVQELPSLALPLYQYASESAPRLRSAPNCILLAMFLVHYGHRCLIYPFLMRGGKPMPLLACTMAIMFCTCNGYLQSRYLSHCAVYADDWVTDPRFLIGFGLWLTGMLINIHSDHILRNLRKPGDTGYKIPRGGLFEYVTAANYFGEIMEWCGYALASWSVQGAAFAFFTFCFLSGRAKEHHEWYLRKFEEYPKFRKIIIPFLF
# Procedure details: Inhibition of 5α-reductase activity (testosterone to 5α-dihydrotestosterone conversion) in Hs68 human genital skin fibroblasts
# Type: cell-based
# Conditions: 1.00 μM test compound, 12 μM testosterone substrate, four hours
# Experimental: Cell Culture:5α-Reductase activity was measured using Hs68 human genital skin fibroblasts which were originally purchased from the American Type Culture Collection (Rockville, Md.). The cells were grown in Dulbecco's Modified Eagle's Medium (DMEM) plus 10% stripped fetal bovine serum which was supplemented with amphotericin B (0.25 mg/ml) and gentamicin (25.0 mg/ml) (GIBCO, Grand Island, N.Y.). […]
Here the recorded inhibition at 1 µM is given for each entry.
Write the number in % without appending the unit.

Below are worked cases with known answers.
[
  {
    "Molecule": "CN1C(=O)CC[C@H]2c3ccccc3CC[C@H]21 (relative stereo) [Example 13]",
    "System tested": "5α-reductase (Homo sapiens, UniProt P18405)",
    "inhibition at 1 µM / %": 32
  },
  {
    "Molecule": "CN1C(=O)CC[C@@]2(C)c3ccccc3CC[C@H]12 (relative stereo) [Example 37]",
    "System tested": "5α-reductase (Homo sapiens, UniProt P18405)",
    "inhibition at 1 µM / %": 40
  },
  {
    "Molecule": "CN1C(=O)CC[C@]2(C)c3ccc(Cl)cc3CC[C@H]12 (relative stereo) [Example 35]",
    "System tested": "5α-reductase (Homo sapiens, UniProt P18405)",
    "inhibition at 1 µM / %": 76.2
  },
  {
    "Molecule": "CN1C(=O)CC[C@H]2c3ccc(Cl)cc3CC[C@@H]21 (relative stereo) [Example 6]",
    "System tested": "5α-reductase (Homo sapiens, UniProt P18405)",
    "inhibition at 1 µM / %": 100
  }
]

Proceeding to the next molecule to report its inhibition at 1 µM.
Task item: Param item = CN1C(=O)CC[C@H]2c3ccccc3CC[C@@H]21 (relative stereo) [Example 12] ; retrieve measured inhibition at 1 µM.
Reply: 78.7
